Recorded Ratio IC50 values for a group of compounds are listed next.
# Measured on: Integrin alpha-4/beta-1 (Homo sapiens, UniProt P05556+P13612)
# Assay remarks: Inhibition of human VCAM1 binding to integrin alpha4beta1 receptor in human Ramos cells labeled with Calcein AM relative to RO0270608
# Type: cell-based
I'd appreciate a reply containing only the number, no unit.

COCCC1(C(=O)N[C@@H](Cc2ccc(-c3c(C(F)(F)F)cc(C)n(C)c3=O)cc2)C(=O)O)CCCC1; 0.75
Cc1cc(C(F)(F)F)c(-c2ccc(C[C@H](NC(=O)c3c(Cl)cccc3Cl)C(=O)O)cc2)c(=O)[nH]1; 0.08
Cc1ccn(C)c(=O)c1-c1ccc(C[C@H](NC(=O)c2c(Cl)cccc2Cl)C(=O)O)cc1; 0.37

What value of measured Ratio IC50 is listed for Cc1cc(C(F)(F)F)c(-c2ccc(C[C@H](NC(=O)c3c(Cl)cccc3Cl)C(=O)O)cc2)c(=O)n1CC1CC1 ?
0.03

What value of measured Ratio IC50 is listed for Cc1cc(C(F)(F)F)n(C)c(=O)c1-c1ccc(C[C@H](NC(=O)c2c(Cl)cccc2Cl)C(=O)O)cc1 ?
0.11

What value of measured Ratio IC50 is listed for Cc1cccc(Cl)c1C(=O)N[C@@H](Cc1ccc(-c2c(C)ccn(C)c2=O)cc1)C(=O)O ?
0.23
